The reported measurements were obtained from patent US9957271B2.

- TARGET OF ASSAY: SIRT1 (Homo sapiens)
- Sequence (Q96EB6 whole entry): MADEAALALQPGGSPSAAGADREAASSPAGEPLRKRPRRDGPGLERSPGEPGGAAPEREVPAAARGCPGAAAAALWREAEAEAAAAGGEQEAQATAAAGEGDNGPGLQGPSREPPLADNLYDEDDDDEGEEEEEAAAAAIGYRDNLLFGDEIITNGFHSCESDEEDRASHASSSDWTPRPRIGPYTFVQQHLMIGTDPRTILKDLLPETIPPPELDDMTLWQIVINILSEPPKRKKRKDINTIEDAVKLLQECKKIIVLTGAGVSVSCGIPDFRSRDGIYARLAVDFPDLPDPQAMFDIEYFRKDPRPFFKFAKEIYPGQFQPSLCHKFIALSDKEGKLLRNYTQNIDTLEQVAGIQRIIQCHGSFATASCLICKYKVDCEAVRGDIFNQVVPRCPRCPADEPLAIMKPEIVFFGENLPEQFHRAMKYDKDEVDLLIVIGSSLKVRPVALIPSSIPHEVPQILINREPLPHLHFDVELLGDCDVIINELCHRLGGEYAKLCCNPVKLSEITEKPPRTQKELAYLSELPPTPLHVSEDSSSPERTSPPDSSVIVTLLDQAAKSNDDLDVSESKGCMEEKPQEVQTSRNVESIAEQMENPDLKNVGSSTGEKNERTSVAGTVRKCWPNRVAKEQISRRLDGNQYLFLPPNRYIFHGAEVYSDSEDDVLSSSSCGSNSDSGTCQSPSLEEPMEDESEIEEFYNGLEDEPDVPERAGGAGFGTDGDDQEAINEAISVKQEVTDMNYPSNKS
- PROTOCOL SUMMARY: Trp mass spectrometry assay of SIRT1 activity
- Assay type: biochemical
- EXPERIMENTAL CONDITIONS: Trp assay; concentration giving 150% activation of SIRT1
READOUT NAME: Trp EC1.5 (μM)

SMILES REPR | READOUT NAME | OBS VALUE
Cc1nc(C(=O)Nc2cnn3ccc(-c4ccccc4OC(F)(F)F)nc23)c(C)s1 | Trp EC1.5 (μM) | B (EC1.5 1-25 μM)
Cc1nccc(NC(=O)c2c(C)nn3ccc(-c4ccccc4C(F)(F)F)nc23)c1C | Trp EC1.5 (μM) | A (EC1.5<1 μM)
Cc1nn2ccc(-c3ccccc3C(F)(F)F)nc2c1C(=O)Nc1cccnn1 | Trp EC1.5 (μM) | A (EC1.5<1 μM)
Cc1cnc(NC(=O)c2c(C)nc3ccc(-c4ccccc4OC[C@H](O)CO)nn23)s1 | Trp EC1.5 (μM) | A (EC1.5<1 μM)
Cc1c(-c2ccccc2Cl)nn2c(NC(=O)c3cccc(N4CCCC4)n3)cnc2c1C | Trp EC1.5 (μM) | B (EC1.5 1-25 μM)
Cc1cc(NC(=O)c2cnc3ccc(-c4ccccc4OC[C@H](O)CO)nn23)nc(C)n1 | Trp EC1.5 (μM) | B (EC1.5 1-25 μM)
O=C(Nc1ccc(CN2CCCC2)cn1)c1cnc2ccc(-c3ccccc3C(F)(F)F)nn12 | Trp EC1.5 (μM) | B (EC1.5 1-25 μM)
